# growth inhibition listing for each entry below
Assay Explanation: NCI Yeast Anticancer Drug Screen. Data for the mec2-1 strain (AID 157)
Setup Conditions: S. cerevisiae mec2-1 strain, at 33.0 µM, active compounds read high
The panel holds about 79,000 compounds, 15% with a hit somewhere; the sample as a whole holds those more often. Calls of active or inactive are those of the source. Rule as the data show it: active = growth inhibition above about 70%; inactive = the rest.
Property Measured: growth inhibition

{"Compound": "O=C(c1ccc(Cl)cc1Cl)C(Cl)Cl", "Measured Value": "81% (active)"}
{"Compound": "OC(c1ccc(F)cc1)(c1ccc(F)cc1)C1CC1", "Measured Value": "-32% (inactive)"}
{"Compound": "CCCN(CCC)CC(O)c1cc(-c2ccc(Cl)cc2)nc2c(C)c(Cl)ccc12 (stereo not drawn)", "Measured Value": "98% (active)"}
{"Compound": "O=C(/C=C\\c1ccc(Cl)cc1Cl)c1cccs1", "Measured Value": "10% (inactive)"}
{"Compound": "Clc1cccc(C(Nc2nncs2)Nc2nncs2)c1Cl", "Measured Value": "19% (inactive)"}
{"Compound": "COc1ccc(/C(C)=N/OC(=O)c2c(-c3ccccc3Cl)noc2C)cc1CN1CCOCC1", "Measured Value": "7% (inactive)"}
{"Compound": "COc1ccc2ccc3ccccc3c2c1C=O", "Measured Value": "0% (inactive)"}
{"Compound": "O=[N+]([O-])c1ccc2c(c1)C(N1CCN(CCO)CC1)Cc1ccc(F)cc1S2 (stereo not drawn)", "Measured Value": "-4% (inactive)"}
